- run description: blockers of an Epstein-Barr virus protein-peptide interaction – biochemical, fluorescence polarization, dose response (AID 1419)
- assay setup: cell-free protein-peptide binding, 2 h
Active and inactive are the calls of the source. How the calls were made is not given here.
Hi! Could you answer with just one of these? active, inactive

Solved cases (4 shown):
> print(dat)
                                   molecule  class.label
1     Cc1ccc2oc(=O)c(/C=C(\O)c3ccccc3)nc2c1     inactive
2  O=C(C1=NN(c2ccccc2)C2C(=O)N(c3ccc(Cl)cc3)C(=O)C12)c1ccccc1 (configuration not stated)     inactive
3  COc1ccc(N2C(=O)[C@@H]3[C@H](C2=O)[C@H]2c4ccccc4C=CN2[C@@H]3C(C)=O)cc1       active
4                O=C1C(Br)=Cc2cccc3cccc1c23       active

# outcome recorded in this test, key = c1ccc(-c2ccnc3nc(N4CCN(c5ccccc5)CC4)nn23)cc1
inactive

Short answer needed: outcome of this test for Cn1c(-c2ccc(C=O)s2)nc2c3ccccc3c3ccccc3c21 ?
active

Dear colleague, could you share the recorded outcome for CCN(CC)c1ccc2cc(S(=O)(=O)c3ccc(C)cc3)c(=O)oc2c1 when you have a moment?
active

Please indicate how the test categorized Cc1noc(/C=C/c2ccc(-c3ccccc3Cl)o2)c1[N+](=O)[O-] .
active

For this molecule, state the assay outcome: Cc1cccc(N=Nc2c(O)[nH]c3ccc(F)cc23)c1
active

Short answer needed: outcome of this test for N#CC1=C(N)OC2=C(CC/C2=C\c2ccccc2)C1c1ccccc1 (configuration not stated) ?
active

Recorded test outcome, item CCCCCn1c(N)c(-c2nc3ccccc3o2)c2c([N+](=O)[O-])nn(CC)c(=O)c21
inactive

Hi, sorry to bother you, what did the test record for Cc1cc(/C=C2\C(=O)NC(=O)N(c3cccc(Br)c3)C2=O)c(C)n1C ?
active

# lookup: test call for O=C(c1nc2n(n1)C(c1ccc(Cl)cc1)C=C(c1ccccc1)N2)N1CCOCC1 (configuration not stated)
active

What did the test return for Nc1c(O)ccc2c1C(=O)c1ccccc1C2=O ?
active

Given CCn1c(C)cc(C=C2C(=O)c3ccccc3C2=O)c1C , state the outcome it received in this test.
active

Short answer needed: outcome of this test for O=C1/C(=C/c2ccco2)Oc2c1ccc(O)c2CN1CCCCC1 ?
active

I'd appreciate the recorded outcome for O=C(Nc1ccc(Cl)cc1)Nc1nnc(-c2ccncc2)s1 from this test.
inactive

###

- run description: blockers of an Epstein-Barr virus protein-peptide interaction – biochemical, fluorescence polarization, dose response (AID 1419)
- assay setup: cell-free protein-peptide binding, 2 h
The source made the active and inactive calls. The rule behind the calls is not given here.
Pick from active, inactive when you respond.

> print(dat)
                               smiles.entry  class.label
1        NC(=O)c1cc2ccc(O)cc2oc1=NCc1ccccc1       active
2  Cc1cc[n+](-c2[nH]c(=O)sc2/C=N/NC([S-])=Nc2ccccc2)cc1C     inactive
3  COc1ccc(NC(=O)CSc2nc3c(c(-c4cccs4)c2C#N)CN(C)CC3)cc1OC     inactive

Which outcome was entered for the compound Cc1cc(C)cc(-n2c(O)c(C=Nc3ccc(N4CCOCC4)cc3)c(=O)[nH]c2=S)c1 in this test?
inactive

Short answer needed: outcome of this test for O=[n+]1c2c(n([O-])c3cc(F)c(N4CCCC4)cc31)CCCC2 ?
active
